Taken from paper PMC4640232.

Data export: Kd values recorded with concanavalin A (ConA) (Canavalia ensiformis, UniProt P02866).
Sequence (P02866 164-281 limits assumed): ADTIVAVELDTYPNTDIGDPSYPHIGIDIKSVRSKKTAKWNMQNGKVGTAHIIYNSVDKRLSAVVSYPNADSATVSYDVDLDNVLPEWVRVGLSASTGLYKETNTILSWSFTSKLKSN
Sequence (P02866 30-148 limits assumed): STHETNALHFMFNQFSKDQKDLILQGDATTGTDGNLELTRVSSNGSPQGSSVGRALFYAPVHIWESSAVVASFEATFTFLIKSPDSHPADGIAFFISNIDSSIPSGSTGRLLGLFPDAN
Numeric answer only, unit µM assumed.

• CCCO[C@@H]1O[C@H](CO[C@H]2O[C@H](CO)[C@@H](O)[C@H](O)[C@@H]2O)[C@@H](O)[C@H](O[C@H]2O[C@H](CO)[C@@H](O)[C@H](O)[C@@H]2O)[C@@H]1O [compound 12] = 3.27

Next:
Given the compound CO[C@H]1O[C@H](CO)[C@@H](O)[C@H](O)[C@@H]1O [methyl α-mannoside] and test system concanavalin A (ConA) (Canavalia ensiformis, UniProt P02866), the measured Kd is 4.65
